Record form. Attribute: inhibition. Fill in for each entry.
# Assay Info: inhibition of coupled GDH and TPI enzymes – biochemical, fluorescence, high throughput, artefact control for M. tuberculosis FBA inhibitor project (AID 652141)
# Condition Details: GDH-TPI coupled enzyme counterscreen, at 1 µM, stronger effect = higher value
Hit rate of the full screen: of about 5,600 compounds, about 4,500 (80%) were called active. The set was probably picked from earlier hits. These entries were drawn from the full list.
One number for each entry, in %.

For orientation, consider the following solved cases.
{"Molecule": "Cc1cccc(NC(=O)c2sc3nc(N4CCOCC4)c4c(c3c2N)CCCC4)c1", "inhibition (%)": 77}
{"Molecule": "CN(C(=O)c1cc2c(=O)n3ccccc3nc2s1)C1CCCCC1", "inhibition (%)": 46.3}
{"Molecule": "O=C(NCc1ccccc1)c1onc(CSc2nc3ccccc3[nH]2)c1C(=O)NCc1ccccc1", "inhibition (%)": 55.8}
{"Molecule": "CCCC/C=C/c1cccc2nncn12", "inhibition (%)": 54}

List reported inhibition for each of these molecules:
1. COc1ccc(C2NC(=O)c3ccccc3N2)cc1 (configuration not stated)
2. Cc1cc(C)c2nc3nc(C)cc(C)c3c(N)c2c1
3. Nc1ccccc1C(=O)NC1CCCCNC1=O (configuration not stated)
4. CCCc1cc(=O)n2[nH]c(C)c(-c3ccc(Cl)cc3)c2n1
5. COCc1cc(=O)n2[nH]c(C)c(-c3ccccc3)c2n1
6. Cc1nc2c(-c3ccccc3)c(C)[nH]n2c(=O)c1Cl

A:
1. 122
2. 22.9
3. 141
4. 108
5. 39.7
6. 81.2

List reported inhibition for each of these molecules:
1. CC(C)CN1CCNC(=O)C1CC(=O)N(C)CC1CCOCC1 (configuration not stated)
2. COC(=O)COc1cc(C)cc2oc(=O)c3c(c12)CCCC3

A:
1: 106; 2: 105

---

# Assay Info: inhibition of coupled GDH and TPI enzymes – biochemical, fluorescence, high throughput, artefact control for M. tuberculosis FBA inhibitor project (AID 652141)
# Condition Details: GDH-TPI coupled enzyme counterscreen, at 1 µM
About 4,500 (80%) of roughly 5,600 compounds were called active. Rule as the data show it: active = inhibition above about 10%; inactive = the rest. So high a share suggests a set chosen from earlier hits. The list is a sample of the results.
Result category, one only: yes for active, no for inactive

{"Molecule": "CCCC1OC23CCCCC2C(C#N)(C#N)C1(C#N)C(=N)O3 (centres undefined)", "Class Label": "no"}

Q: # outcome recorded in this test, key = `CCCS(=O)(=O)Nc1c(C(=O)O)[nH]c2ccccc12`
A: yes

Q: # outcome recorded in this test, key = `CCCN(C(=O)CSc1nnc(N)s1)c1c(N)n(Cc2ccccc2)c(=O)[nH]c1=O`
A: yes

Q: # outcome recorded in this test, key = `CC(C)(C)OC(=O)NNc1c2ccccc2nc2ccccc12`
A: no

Q: # outcome recorded in this test, key = `Cc1ccsc1C(=O)N[C@@H](C)c1nnc2ccccn12`
A: yes

Q: # outcome recorded in this test, key = `CC(C)=NN1C(=O)c2ccccc2NC1(C)C`
A: yes

Q: # outcome recorded in this test, key = `COc1nc(N=C(N)N)nc2c(C)cccc12`
A: yes

Q: # outcome recorded in this test, key = `O=C(NCCN1CCOCC1)c1cc(-c2cccs2)nc2ccccc12`
A: no

Q: # outcome recorded in this test, key = `Cc1cc(NC(C)C)n2c(nc3ccccc32)c1C#N`
A: yes

---

Record form. Attribute: inhibition. Fill in for each entry.
# Assay Info: inhibition of coupled GDH and TPI enzymes – biochemical, fluorescence, high throughput, artefact control for M. tuberculosis FBA inhibitor project (AID 652141)
# Condition Details: GDH-TPI coupled enzyme counterscreen, at 1 µM, stronger effect = higher value
The campaign covered roughly 5,600 compounds. About 4,500 (80%) were called active. So high a share suggests a set chosen from earlier hits. A selection follows.

For orientation, consider the following solved cases.
{"Molecule": "CC(C)n1ncc2c(C(=O)NCc3ccccc3CN(C)C)cc(C3CC3)nc21", "inhibition": "108% (active)"}
{"Molecule": "Cc1nn(-c2ccccc2)nc1C(=O)OCC(=O)N1CCCCC1C (stereo unspecified)", "inhibition": "-3.64% (inactive)"}

List reported inhibition for each of these molecules:
1. COc1cccc2sc3cc(NCC[C@@H]4CCCN4C)ccc3c(=O)c12
2. CCc1cc(=O)oc2cc(C)cc(OCC(=O)N3CCC[C@@H]3C(=O)O)c12
3. CN(C)CCCNC(=O)c1ccc2[nH]c3ccccc3c2c1
4. CCOC(=O)c1cc2cc(C)ccc2[nH]1

A:
1. 69.2% (active)
2. 54.6% (active)
3. 96.7% (active)
4. 42.5% (active)

---

# Assay Info: inhibition of coupled GDH and TPI enzymes – biochemical, fluorescence, high throughput, artefact control for M. tuberculosis FBA inhibitor project (AID 652141)
# Condition Details: GDH-TPI coupled enzyme counterscreen, at 1 µM
Hit rate of the full screen: of about 5,600 compounds, about 4,500 (80%) were called active. Rule as the data show it: active = inhibition above about 10%; inactive = the rest. So high a share suggests a set chosen from earlier hits. A selection follows.
Result category, one only: TRUE = active, FALSE = inactive

Solved entries:
{"Compound": "C=CCc1c(C)nc2cc(-c3ccccc3)[nH]n2c1=O", "Class Label": "TRUE"}
{"Compound": "O=C(Nc1ccc(-c2nnc(-c3ccccc3)o2)cc1)C1CCCO1 (centres undefined)", "Class Label": "FALSE"}
{"Compound": "CC1(C(=O)NCc2ccc(F)c(F)c2)Cc2c(-c3ccc4c(c3)OCO4)ccnc2O1 (centres undefined)", "Class Label": "TRUE"}

Q: # outcome recorded in this test, key = CCC1C(=O)c2ccccc2N(C)C1=O (centres undefined)
A: FALSE

Q: # outcome recorded in this test, key = `CC(C)n1c(-c2cccs2)nc2ccccc21`
A: TRUE

Q: # outcome recorded in this test, key = `COc1ccccc1-c1oc2ccccc2c1C#CCCCCO`
A: TRUE

Q: # outcome recorded in this test, key = `Fc1ccc(COc2cccc(-c3n[nH]c(=S)o3)c2)cc1`
A: TRUE

Q: # outcome recorded in this test, key = `O=C(CCc1ccccc1)Nc1cccc(-c2nnc(-c3ccco3)o2)c1`
A: TRUE

Q: # outcome recorded in this test, key = `CCNC(=S)Nc1ccc2c(c1)c(=O)n(C)n2Cc1ccc(Cl)cc1`
A: FALSE

Q: # outcome recorded in this test, key = `CCc1c(C)nc2cc(-c3cccs3)[nH]n2c1=O`
A: TRUE

Q: # outcome recorded in this test, key = `CC(C)(C)Nc1c(-c2cccs2)nc2ccccn12`
A: TRUE

Q: # outcome recorded in this test, key = CCN(C(=O)COC(=O)c1ccc(COc2ccc3c(C)cc(=O)oc3c2)cc1)C1CCS(=O)(=O)C1 (centres undefined)
A: FALSE

Q: # outcome recorded in this test, key = `CCCCn1c(-c2cccc(C)c2)nc2cc3[nH]c(=O)c(C(C)C)nc3cc21`
A: TRUE

---

Record form. Attribute: inhibition. Fill in for each entry.
# Assay Info: inhibition of coupled GDH and TPI enzymes – biochemical, fluorescence, high throughput, artefact control for M. tuberculosis FBA inhibitor project (AID 652141)
# Condition Details: GDH-TPI coupled enzyme counterscreen, at 1 µM, stronger effect = higher value
Among all 5,600 compounds or so, about 4,500 (80%) were called active. The set was probably picked from earlier hits. These entries were drawn from the full list.

For orientation, consider the following solved cases.
{"Molecule": "c1ccc(Cc2c(-c3ccco3)nc3c4ccccc4ccn23)cc1", "Result": "95.6% (active)"}
{"Molecule": "COc1ccccc1C(=O)Nc1ccc(OCC(=O)N2CCCCC2)cc1", "Result": "137% (active)"}
{"Molecule": "COCCNc1cc(-c2ccccc2)nc2cc(-c3cccc(F)c3)nn12", "Result": "133% (active)"}

List reported inhibition for each of these molecules:
1. Nc1ccccc1-c1nc2ccncc2[nH]1
2. CC(C)Cn1c(N)c(C(=O)NCc2cccs2)c2nc3ccccc3nc21
3. CCOc1c2ccc(C(=O)NCc3ccc4c(c3)OCO4)cc2nn1C
4. Cc1ccc(NC(=O)CN(C)C(=O)COC(=O)c2nccnc2N)cc1
5. COCCCNC(=S)NCCNc1nc2cc(C)c(C)cc2cc1C#N
6. CCOC(=O)N1CCN(C(=O)c2cc3c(ccc4ccccc43)oc2=O)CC1

A:
0.69% (inactive)
29.6% (active)
68.1% (active)
-3.67% (inactive)
60.5% (active)
-8.26% (inactive)

List reported inhibition for each of these molecules:
1. Cc1c(CCC(=O)O)c(=O)oc2cc(OCc3ccc(Br)cc3)ccc12
2. COCCCn1c(C(=O)NC2CCCCC2)cc2c(=O)n3cccc(C)c3nc21
3. COC(=O)c1c(-c2ccsc2)oc2ccc(-c3cc(OC)c(OC)c(OC)c3)cc12

A:
1. 1.56% (inactive)
2. 53.1% (active)
3. -4.81% (inactive)

List reported inhibition for each of these molecules:
1. OC[C@@H]1CN(Cc2cccs2)C[C@H](n2cnc3c(Nc4ccccc4)ncnc32)O1
2. CCOc1ccc2nc(Nc3nc4ccc(NC(C)=O)cc4s3)sc2c1
3. Cc1coc2c1c(C)cc1oc(=O)c(CC(=O)NCC(=O)N[C@H](C(=O)O)C(C)C)c(C)c12
4. N#Cc1c(N2CCCCC2)nc(N)c2c(N)nc(SCC(=O)O)cc12
5. Nc1nc2n(n1)C(c1ccco1)CC(c1ccc(Cl)c(Cl)c1)N2 (stereo not given)
6. CC(=O)N1C(=O)/C(=C2\SC(=S)N(NC(=O)c3ccc(O)cc3)C2=O)c2ccccc21
7. O=C(NCCN1CCOCC1)c1ccc2c(c1)N(Cc1ccc(Cl)cc1)CCS2

A:
1. 64.2% (active)
2. 13.8% (active)
3. 49.8% (active)
4. 8.17% (inactive)
5. 199% (active)
6. -2.52% (inactive)
7. 48.2% (active)

List reported inhibition for each of these molecules:
1. CN1c2ccc(C=O)c3c(C=O)ccc(c23)N(C)C1(C)C
2. Cc1ccc(S(=O)(=O)N2C[C@@H](C)[C@]3(C2)[C@H](O)[C@H](OC(=O)NCc2ccccc2)C[C@H]2C(=O)N(c4ccccc4)C(=O)[C@H]23)cc1
3. Cc1c(OC(C)C(=O)N[C@@H](Cc2ccccc2)C(=O)O)ccc2c3c(c(=O)oc12)CCCC3 (stereo not given in full)
4. CCOC(=O)c1c(-c2ccccc2)oc2ccc(OCC(N)=O)cc12
5. CCOC(=O)Cc1c(C)nc2c(C#N)c(C)nn2c1C

A:
1: 19.9% (active); 2: -1.04% (inactive); 3: -2.05% (inactive); 4: 126% (active); 5: 39.1% (active)

List reported inhibition for each of these molecules:
1. COc1ccccc1NC(=O)COc1ccc(C(=O)OCC(=O)N(C(C)C)C(C)C)cc1OC
2. Cc1nc(COc2cc3oc(=O)cc(C)c3cc2Cl)cs1
3. Cc1ccc(S(=O)(=O)N2CCN(C(=O)CSc3cc(C)ccc3C)CC2)c(C)c1
4. COc1ccc2[nH]c3c(=O)n(Cc4ccco4)cnc3c2c1
5. C[C@H]1CN([C@@H](C)CO)C(=O)c2cc(Br)cnc2O[C@H]1CN(C)S(=O)(=O)c1cccs1
6. CCCn1nc2cc(C(=O)NCc3ccccc3)ccc2c1OCC
7. C=CCn1cc(-c2cccc(C(F)(F)F)c2)cc(C#N)c1=O
8. Cc1cc(S(=O)(=O)c2cc3ccc(O)c(C)c3oc2=O)ccc1F

A:
1. -2.75% (inactive)
2. 171% (active)
3. 108% (active)
4. -2.61% (inactive)
5. 2.73% (inactive)
6. -3.32% (inactive)
7. -2.28% (inactive)
8. 40.8% (active)

List reported inhibition for each of these molecules:
1. O=C(NCCN1CCN(Cc2ccccc2)CC1)c1cc2c(=O)[nH]c3ccccc3c2s1
2. COc1ccc(NC(=O)N2CCC(Cc3ccccc3)CC2)cc1

A:
125% (active)
23.6% (active)
